biological target: Penicillin-binding protein 2x (Streptococcus pneumoniae serotype 4 (strain ATCC BAA-334 / TIGR4)); assay: Inhibition of penicillin-resistant Streptococcus pneumoniae 5204 PBP2X preincubated for 4 hrs before addition of substrate (R)-[2-(benzoylamino)propionylsulfanyl]acetic acid
The source made the active and inactive calls. No cut-off for these calls is given here.
Returns: one label drawn from YES = active, NO = inactive

Check the results log: what was the call for "CO[C@H]1CCC[C@H]2C1=C(C(=O)O)N1C(=O)[C@H]([C@@H](C)O)[C@@H]21" ? YES

Param item: "NCCSCc1cnccc1SC1=C(C(=O)O)N2C(=O)[C@@H](NC(=O)/C(=N\O)c3nc(N)sc3Cl)[C@H]2SC1" YES

Param item: CCn1c2ccccc2c2cc(/C=C3\S/C(=N\C(Cc4ccccc4)C(=O)O)N(c4ccccc4)C3=O)ccc21 (configuration not stated) NO

Param item: "CC1(C)S[C@@H]2[C@H](NC(=O)[C@H](N)c3ccc(O)cc3)C(=O)N2[C@H]1C(=O)O" YES

Param item: "Nc1cc(SCSC2=C(C(=O)O)N3C(=O)[C@@H](NC(=O)/C(=N/O)c4nc(N)sc4Cl)[C@H]3SC2)nc(N)n1" YES

Param item: "C[C@H]1NCc2cc(-c3ccc4c(=O)c(C(=O)O)cn(C5CC5)c4c3OC(F)F)ccc21" YES

Param item: CCn1c2ccccc2c2cc(/C=C3\S/C(=N\c4ccccc4)N(C(C(=O)O)c4ccccc4)C3=O)ccc21 (configuration not stated) NO

Param item: COc1c(N2CCNC(C)C2)c(F)cc2c(=O)c(C(=O)O)cn(C3CC3)c12 (configuration not stated) YES

Next up:
Check the results log: what was the call for "Nc1nc(/C(=N/O)C(=O)N[C@@H]2C(=O)N3C(C(=O)O)=C(/C=C4\CCN([C@@H]5CCNC5)C4=O)CS[C@H]23)ns1" ? YES

---

molecular target: Penicillin-binding protein 2X (Streptococcus pneumoniae R6) (UniProt P59676); assay: Inhibition of penicillin-sensitive Streptococcus pneumoniae R6 PBP2X preincubated for 1 hr before addition of substrate (R)-[2-(benzoylamino)propionylsulfanyl]acetic acid
Sequence (P59676 whole entry): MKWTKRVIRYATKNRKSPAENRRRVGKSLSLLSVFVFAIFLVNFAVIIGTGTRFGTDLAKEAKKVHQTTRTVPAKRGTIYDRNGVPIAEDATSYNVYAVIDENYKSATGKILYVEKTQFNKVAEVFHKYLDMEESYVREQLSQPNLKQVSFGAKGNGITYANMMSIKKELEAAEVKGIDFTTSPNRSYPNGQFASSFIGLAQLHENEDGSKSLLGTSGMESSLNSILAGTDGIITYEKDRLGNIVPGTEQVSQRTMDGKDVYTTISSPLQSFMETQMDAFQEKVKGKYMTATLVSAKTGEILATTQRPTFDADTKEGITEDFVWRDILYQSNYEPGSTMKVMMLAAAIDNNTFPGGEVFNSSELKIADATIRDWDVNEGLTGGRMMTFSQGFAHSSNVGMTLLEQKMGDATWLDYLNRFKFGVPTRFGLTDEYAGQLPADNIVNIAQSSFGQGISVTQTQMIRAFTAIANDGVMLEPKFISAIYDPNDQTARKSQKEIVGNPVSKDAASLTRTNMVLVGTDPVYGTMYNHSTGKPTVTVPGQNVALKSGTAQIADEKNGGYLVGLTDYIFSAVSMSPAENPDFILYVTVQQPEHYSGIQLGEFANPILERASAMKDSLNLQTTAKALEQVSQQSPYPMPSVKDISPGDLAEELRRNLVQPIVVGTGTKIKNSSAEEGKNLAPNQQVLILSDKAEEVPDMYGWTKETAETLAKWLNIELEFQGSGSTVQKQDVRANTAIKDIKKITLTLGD
Calls of active or inactive are those of the source. No cut-off for these calls is given here.
OUTCOME MEASURE: Activity

Example results:
Quick one: Activity of "C[C@@H](O)[C@H]1C(=O)N2C(C(=O)O)=C([C@H]3CCCO3)S[C@H]12" ? Active

Param item: "O=C(COc1ccccc1)N[C@H]1CON([C@@]2(C(=O)O)CCC(=O)O2)C1=O" Active

Param item: COc1c(N2CCNC(C)C2)c(F)cc2c(=O)c(C(=O)O)cn(C3CC3)c12 (stereo unspecified) Active

Param item: "N[C@@H](C(=O)N[C@@H]1C(=O)N2C(C(=O)O)=C(Cl)CS[C@H]12)c1ccccc1" Active

Param item: "COCC1=C(C(=O)O)N2C(=O)[C@@H](NC(=O)/C(=N\OC)c3csc(N)n3)[C@H]2SC1" Active

Proceeding to the next molecule to report its Activity.
Quick one: Activity of "CCO/N=C(\C(=O)N[C@@H]1C(=O)N2C(C(=O)[O-])=C(C[n+]3cccc4c3ncn4CCCNC)CS[C@H]12)c1nsc(N)n1" ? Active

---

target: Penicillin-binding protein 2X (Streptococcus pneumoniae R6); assay: Inhibition of penicillin-sensitive Streptococcus pneumoniae R6 PBP2X preincubated for 1 hr before addition of substrate (R)-[2-(benzoylamino)propionylsulfanyl]acetic acid
Active and inactive are the calls of the source. No cut-off for these calls is given here.
OUTCOME MEASURE: Activity

// lookup Activity | system=Penicillin-binding protein 2X (Streptococcus pneumoniae R6) | key= "O=C(O)c1cc(-c2ccc(/C=C3\S/C(=N\c4ccccc4)N(c4ccccc4)C3=O)o2)ccc1Cl" inactive

Param item: CCn1c2ccccc2c2cc(/C=C3\S/C(=N\c4ccccc4)N(C(C(=O)O)c4ccccc4)C3=O)ccc21 (stereo not given) inactive

Param item: "CC(=O)C[n+]1ccc(SCC2=C(C(=O)[O-])N3C(=O)[C@@H](NC(=O)/C(=N/OC4CCCC4)c4csc(N)n4)[C@H]3SC2)cc1" Active

Param item: "C[C@@H](O)[C@H]1C(=O)N2C(C(=O)O)=C(SCCNC=N)C[C@H]12" Active

Param item: CCn1c2ccccc2c2cc(/C=C3\S/C(=N\c4ccccc4)N(C(C(=O)O)C(C)C)C3=O)ccc21 (stereo not given) inactive

Param item: CCn1c2ccccc2c2cc(/C=C3\S/C(=N\C(Cc4ccccc4)C(=O)O)N(c4ccccc4)C3=O)ccc21 (stereo not given) inactive

***
// lookup Activity | system=Penicillin-binding protein 2X (Streptococcus pneumoniae R6) | key= "CC(=N)N1CC[C@H](SC2=C(C(=O)O)N3C(=O)[C@H]([C@@H](C)O)[C@H]3C2)C1" Active

Param item: "Nc1cc(SCSC2=C(C(=O)O)N3C(=O)[C@@H](NC(=O)/C(=N/O)c4nc(N)sc4Cl)[C@H]3SC2)nc(N)n1" Active

Param item: "CC1(C)S[C@@H]2[C@H](NC(=O)[C@H](N)c3ccccc3)C(=O)N2[C@H]1C(=O)O" Active

Param item: "Cc1cc(SCC2=C(C(=O)[O-])N3C[C@@H](NC(=O)CSc4c(Cl)cc(/C=C/C(=O)NCC(=O)[O-])cc4Cl)[C@H]3SC2)cc(C)[n+]1CCC[N+]1(C)CCOCC1" Active

FYI, the data here is from ChEMBL document CHEMBL1155224.
